The following variants are listed with their measured protein stability index values.
B1: TIA1 (parent)
chain: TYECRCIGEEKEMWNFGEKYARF

Variants of: B1
Experiment: protein stability index of a GFP-peptide fusion (GPS, HEK-293T) (PSI 1-6); higher = more stable;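 further: lentivirally expressed fusions sorted by FACS into six bins by GFP to DsRed ratio, PSI derived from sequencing read proportions per bin multiplied by bin number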
Conditions: c terminus: native

sequenceChange	protein stability index
W14P	2.31
A21R	2.71
N15D	2.04
Y20D	3.16
A21K	2.8
F16P	1.91
C6S	3.8
G17T	2.89
